# System: MDA-N
# procedure summary: NCI tumour cell line growth inhibition, 48 h
The source made the active and inactive calls. No stated cut-off is given here; in the data, active = GI50 up to about 1.1 µM and inactive = higher.
Consider the following compounds; for each one, report its GI50.

input: Write down the reported GI50 of C[C@]12CC[C@H]3[C@@H](CC=C4C[C@@H](O)CC[C@@]43C)[C@@H]1C[C@H](N1CCOCC1)[C@@H]2O , test system: MDA-N.
output: > 100 µM (inactive)

input: Write down the reported GI50 of CCOC(=O)c1cn2c(n1)sc1cc(C)c(C)cc12 , test system: MDA-N.
output: 6.04 µM (inactive)

input: Write down the reported GI50 of Cc1nn(C(=O)c2ccncc2)c2c1C(c1ccccc1)SC(=N)N2 (stereo not given) , test system: MDA-N.
output: > 10 µM (inactive)

input: Write down the reported GI50 of CN1CCN(CCCCN2c3ccccc3Sc3ccc(C(=O)c4ccccc4)cc32)CC1 , test system: MDA-N.
output: 1.55 µM (inactive)

input: Write down the reported GI50 of O=C(O)C1C2C=CC(O2)C1C(=O)NCc1cccnc1 (stereo not given) , test system: MDA-N.
output: > 100 µM (inactive)
